# Measurement Notes: yeast display, Sf9 membrane polyspecificity reagent, FACS + sequencing; frameworks hold sequencing errors
Property: polyreactivity (PSR sort gate)

query_sequence=QVQLVESGGGLVQAGGSLRLSCAASGRTFAGNAMGWYRQAPGKERELVAAIRRTGGRTYYADSVKGRFTISRDNAKNTVYLQMNSLKPEDTAVYYCNAVNKPYTREYGYDYWGQGTQVTVSS property="polyreactivity (PSR sort gate)" observed_result="high polyreactivity"
query_sequence=QVHLEESGGGLVQAGGSLRLSCAASGRIPFYAMGWYRQAPGKEREFVAAIRFSGGSTFYADSVKGRFTISRDNAKNTVYLQMNSLTPEDTAVYYCAAYLYYPFYWWRDYCGQGTQVTVSS property="polyreactivity (PSR sort gate)" observed_result="high polyreactivity"
query_sequence=QVQLVESGGGLVQAGGSLRISCAASGGNFRYYTMGWYRQAPGKERELVAAITRGGRTYYADSVKGRFTISRDNAKNTVYIQMNSLKPEDTAVYYCAAVRPRSPVSYENDYWGQGTQVTVSS property="polyreactivity (PSR sort gate)" observed_result="high polyreactivity"
query_sequence=QVQLVESGGGLVQAGGSLRLSCAASGFTSCDNDMGWYRQAPGKERELVAAISRGGSTNYADSVKGRFTISRDNAKNTVYLQMNSLKPEDTAVYYCATAAVTPVWYDYWGKGTQVTVSS property="polyreactivity (PSR sort gate)" observed_result="low polyreactivity"
query_sequence=QVELVYSGGGLVQAGGSLRLSCPASGSTFWYYAMGWSRQPPGKERELVAAINSGGSTFYADSVKGRFTISRDNAKNTVYLQMNSLKPEDTAVYYCAKRSYDYRRYYWGQGTQVTVSS property="polyreactivity (PSR sort gate)" observed_result="high polyreactivity"

**Q:** What does the record list as polyreactivity (PSR sort gate) for `QVQLVESGGGLVQAGGSLRLSCAASGSIFGYYTMGWYIQAPGKERELVAAITSGGSTNYADSVKGRFTISRDNAKNTVYLQMNSLKPEDTAVYYCAKVSYYPWRYDYWGQGTQVTVSS` ?
**A:** low polyreactivity

**Q:** Reported polyreactivity (PSR sort gate) for `QVQLVESGGGLVQAGGSLRLSCAASGRTFRHDGMGWYRQAPGKERELVAAISRSGGRTYYADSVKGRFTISRDNAKNTVYLQMNSLKPEDTAVYYCNAPYDVTTYAFDYWGQGTQVTVSS` : what is it?
**A:** high polyreactivity

**Q:** Consider the sequence shown here: `QVQLVESGGGLVQAGGSLRLSCAASGSIFYRNAMGWSRQAPGKERELVAAISASGGSTYYADSVKGRFTISRDNAKNTVYLQMNSLKPEDTAVYYCAVEYRKSRSYAPMGYWGQGTQVTVSS` What is its recorded polyreactivity (PSR sort gate)?
**A:** high polyreactivity

**Q:** For the sequence shown here, `QVQLVESGRGLVQAGGSLRLSCAASGRIFSVNTMGWYRQAPGKERELVAGITGGGSTNYADSVKGRFTISRDNAKNTVYLQMNSLKPEDTAVYYCAAGWRSGFDYWGQGTQVTVSS` , give the reported polyreactivity (PSR sort gate).
**A:** high polyreactivity

**Q:** Look at this sequence and give its reported polyreactivity (PSR sort gate). `QVQLVESGGGLVQAGGSLRLSCAASGRIFAWDAMGRYRQAPGKERELVAAITWGGGRTYYADSVKGRFTISRDNAKNTVYLQMNSLKPEDTAVYYCAAYSYKEEAYRGVAQERDYWGQGTQVTVSS`
**A:** low polyreactivity

**Q:** Requested read-out: polyreactivity (PSR sort gate). Entry: `QVQLVESGGGLVQAGRSLRLSCAASGSTFPWYTMGWYRQAPGKERELVAAIDGSAGDTYYADSVKGRFTISRDNAKNTVYLQMNSLKPEDTAVYYCATRTSRWGYLHYDYWGQGTQVTVSS`
**A:** low polyreactivity

###

# Measurement Notes: yeast display, Sf9 membrane polyspecificity reagent, FACS + sequencing; frameworks hold sequencing errors
Property: polyreactivity (PSR sort gate)

Known polyreactivity (PSR sort gate) results, listed for orientation:
query_sequence=QVQLVESGGGLVQAGGSLRLSCAASGFTFYTYAMGWYRQPPGKERELVAAISRRGGSTYYADSVKGRFTISRDNAKNTVYLQMNSLKPEDTAVYYFNAVADSYSGFDGYYYWGQGTQVTVSS property="polyreactivity (PSR sort gate)" observed_result="high polyreactivity"
query_sequence=QVQLVESGGGLVQAGGSLRLSCAASGSTSDINAMGWYRQAPGKERELVAAISSSGGRTYYADSVKGRFTISRDNAKNTVYLQMNSLKPEDTAVYYCAADTYTSAQHEKYDYWGQGTQVTVSS property="polyreactivity (PSR sort gate)" observed_result="low polyreactivity"
query_sequence=QVQLVESGGGLVQAGGSLRLSCAASGRTFDHNAMGWYRQAPGKERELVAAITWSGGITDYADSVKRPFTISRDNAKNTVYLQMNSLKPEDTAVCGQGTQVTVSS property="polyreactivity (PSR sort gate)" observed_result="low polyreactivity"
query_sequence=QVQLVESGGGLVQAGGSLRLSCAASGFIFKLYAMGWYRQAPGKERELVAAIRSSGGSTYYADSVKGRFTISRDNAKNTVYLQMNSLKPEDTAVYYCAKVGGRVRYNYWGQGTQVTVSS property="polyreactivity (PSR sort gate)" observed_result="high polyreactivity"

Note: attention shifts to another entry.
**Q:** Look up polyreactivity (PSR sort gate) for this sequence: `QVQLVESGGGLVQAGGSLRLSCAASGFIFRFNAMGWYRQAPGKERELVAAITYRGITYYADSVKGRFTISRDNAKNTVYLQMNSLKPEDTAVYYCAKRTSARGLYGVYFGRYEYWGQGTQVTVSS`
**A:** high polyreactivity

###

# Measurement Notes: yeast display, Sf9 membrane polyspecificity reagent, FACS + sequencing; frameworks hold sequencing errors
Property: polyreactivity (PSR sort gate)

query_sequence=QVQHVESGGGLVQAGGSLRLSCAASGFTFWYYDMGWSRQAPGKERELVAAITNGGRTYYADSVKGRFTISRDNAKNTVYLQMNSLKPEDTAVYYCAAGRWRSGRAEDYWGQGTQVTVSS property="polyreactivity (PSR sort gate)" observed_result="high polyreactivity"
query_sequence=QVQLVESVGGLVQAGGSLRLSCAASGLTFYVYAMGRYRQAPGKERELVAAITQNGGTTYYADSVKGRFTISRDNAKNTVYLQMNSLKPEDTAVYNCAARRLYAGHQYDYWGQGTQVTVSS property="polyreactivity (PSR sort gate)" observed_result="high polyreactivity"
query_sequence=QVQLVESGGGLVQAGGSLRLSCAASGFIFYYYAMGWYRQAPGKERELVAAISRSGGSTYYADSVKGRFTISRDNAKNTVYLQMNSLKPEDTAVYYCAVYGYYALTHWEYDYWGQGTQVTVSS property="polyreactivity (PSR sort gate)" observed_result="high polyreactivity"

###

# Measurement Notes: yeast display, Sf9 membrane polyspecificity reagent, FACS + sequencing; frameworks hold sequencing errors
Property: polyreactivity (PSR sort gate)

query_sequence=QVQLVESGGGLVQAGGSLRLSCAASGIIFPSYAMGWYRQAPGKERELVAAINSSGGSTYYADSVKGRFTISRDNAKNTVYLQMNSLKPEDTAVYYCAAEADLQWYPYSFPYPYYYWGQGTQVTVSS observed_result="high polyreactivity"
query_sequence=QVQLVESGGGLVQAGGSLRISCAASGRIFATNAMGWYRQAPGKERELVAVITGGGDTNYADSVKGRFTISRDNAKNTVYLQMNSLKPEDTAVYYCAAEGSFYRYHVGSDYWGQGTQVTVSS observed_result="low polyreactivity"
query_sequence=QVQLVESGGGLVQAGGSLRLSCAASGFIFGINAMGWYRQAPGKEREFVATITSGGGTNYADSVKGLFTISRDNAKNTVYLQMHSLKPEDTAVYYGAAEEDYIYFYVSMDYWGQGTQVTVSS observed_result="low polyreactivity"
query_sequence=QVQHVESGGGLVQPGGSLRLSCAASGNAMGWYRQAPGKERELVASINRSGGRTYYADSVKGSYTISRDNAKNTVYLQMNSLKPEDTAVYYCAARPHYDSDYWGQGTQVTVSS observed_result="low polyreactivity"

**Q:** Form field: reported polyreactivity (PSR sort gate) of `QVQLVESGGGLVQAGGSLRLSCAASGRIFDQNAMGWYRQAPGKERELVAAISSSGGRTYYADSVKGRFTISRDNAKNTVYLQMNSLKPEDTAVYYCAARYRFQRGGYYYWGQGTQVTVSS`
**A:** high polyreactivity

###

# Measurement Notes: yeast display, Sf9 membrane polyspecificity reagent, FACS + sequencing; frameworks hold sequencing errors
Property: polyreactivity (PSR sort gate)

query_sequence=QVQLQERGGGLMQAGGSQRLSCAASGSISYYSDMGWYRQAPGTEREFVAGIGYGTTTNYADSVKGRFTTSRDNAKNTVDLQMISMKPEDTAVYYCAAYQGNGYEFYYWGQGTQVTVRS observed_result="low polyreactivity"
query_sequence=QVQLVESGGGLVQAGGSLRLTCAASGIIFYGYAIGWYRQAPGKERQLVAAISSGGGTNYADSVKGRFTISRDNAKNTVYLQMNSLKPEDTAVYYCAARQYRRVKQGNYWGQGTQVTLSS observed_result="high polyreactivity"
query_sequence=QVQLVESGGGLVQAGGSLRLSCAASGRTFRVYAMGWYRQAPGKERELVATLTGRGGSTDYADSVKGRFTISRDNAKNTVYLQMNILKPEDTAVYYCAAVGVSRRADPAWAGDYWGQGTQVTVSS observed_result="high polyreactivity"
query_sequence=QVQLVESGGGLVQAGGSLRLSCAASGFIFQYYAMGWYRQAPGKERELVAAISFSGGSTYYADSVKGRFTISRANAKNTVYLPMNSLKPEDTAVYYCAAEVYSGGDYSGHDYYWGQGTQVTVSS observed_result="low polyreactivity"

Query sequence follows.
**Q:** Any idea what polyreactivity (PSR sort gate) was measured for `QVQLVESGGGLVQAGGSLRLSCAASGGTFVLNAMGWYRQAPGKERELVATISSGGGTDYADSVKGRFTISRDNAKNTVYLQMNSLKPEDTAVYYCNTDYILWGDYDYWGQGTQVTVSS` ?
**A:** low polyreactivity
